System: SR leukemia
ASSAY: NCI tumour cell line growth inhibition, 48 h
Task for the reader: assign each of the following compounds its reported GI50.

Identify GI50 associated with the compound COc1cc(-c2nc3ccccc3s2)ccc1OCCCCOc1cc2c(cc1OC)C(=O)N1CCC[C@H]1C=N2
0.212 µM

Identify GI50 associated with the compound C=CC(=O)N1CCC(c2ccc(C(N)=O)c(-c3ccc(Oc4ccccc4)cc3)n2)CC1
28 µM

Identify GI50 associated with the compound Cc1cn2c(/C=C3/C(=O)Nc4c3ccc3ccccc43)c(C(F)(F)F)nc2s1
0.238 µM

Identify GI50 associated with the compound O=C(NCCN1CCOCC1)OCc1nc2nc(Cl)nc(N3CCOCC3)c2[nH]1
0.728 µM

Identify GI50 associated with the compound COC(=O)c1c2c(c(C)[n+]([O-])c1C)C(=O)C=C(NCc1ccccc1)C2=O
0.895 µM

Identify GI50 associated with the compound COc1c(C(C)=O)c(OCCCCOc2c(C(C)=O)c(OC)c3ccoc3c2OC)c(OC)c2occc12
0.258 µM

Identify GI50 associated with the compound O=[N+]([O-])c1cc[n+]([O-])c2ccccc12
0.0245 µM

Identify GI50 associated with the compound COC(C)(C)[C@@H](O)[C@H](O)C[C@H](C)C1=C2CC[C@@H]3[C@@]4(C)CC[C@@H](OC(C)=O)C(C)(C)[C@@H]4C[C@@H](OC4OC(COC(C)=O)C(O)C(O)C4O)[C@@]3(C)[C@]2(C)CC1 (stereo partly drawn)
3.06 µM
